# target entity: EGFR TMLRCS (T790M/L858R/C797S) (Homo sapiens, UniProt P00533, C797S/L858R/T790M)
# Sequence (P00533 25-1210 T790M/C797S/L858R): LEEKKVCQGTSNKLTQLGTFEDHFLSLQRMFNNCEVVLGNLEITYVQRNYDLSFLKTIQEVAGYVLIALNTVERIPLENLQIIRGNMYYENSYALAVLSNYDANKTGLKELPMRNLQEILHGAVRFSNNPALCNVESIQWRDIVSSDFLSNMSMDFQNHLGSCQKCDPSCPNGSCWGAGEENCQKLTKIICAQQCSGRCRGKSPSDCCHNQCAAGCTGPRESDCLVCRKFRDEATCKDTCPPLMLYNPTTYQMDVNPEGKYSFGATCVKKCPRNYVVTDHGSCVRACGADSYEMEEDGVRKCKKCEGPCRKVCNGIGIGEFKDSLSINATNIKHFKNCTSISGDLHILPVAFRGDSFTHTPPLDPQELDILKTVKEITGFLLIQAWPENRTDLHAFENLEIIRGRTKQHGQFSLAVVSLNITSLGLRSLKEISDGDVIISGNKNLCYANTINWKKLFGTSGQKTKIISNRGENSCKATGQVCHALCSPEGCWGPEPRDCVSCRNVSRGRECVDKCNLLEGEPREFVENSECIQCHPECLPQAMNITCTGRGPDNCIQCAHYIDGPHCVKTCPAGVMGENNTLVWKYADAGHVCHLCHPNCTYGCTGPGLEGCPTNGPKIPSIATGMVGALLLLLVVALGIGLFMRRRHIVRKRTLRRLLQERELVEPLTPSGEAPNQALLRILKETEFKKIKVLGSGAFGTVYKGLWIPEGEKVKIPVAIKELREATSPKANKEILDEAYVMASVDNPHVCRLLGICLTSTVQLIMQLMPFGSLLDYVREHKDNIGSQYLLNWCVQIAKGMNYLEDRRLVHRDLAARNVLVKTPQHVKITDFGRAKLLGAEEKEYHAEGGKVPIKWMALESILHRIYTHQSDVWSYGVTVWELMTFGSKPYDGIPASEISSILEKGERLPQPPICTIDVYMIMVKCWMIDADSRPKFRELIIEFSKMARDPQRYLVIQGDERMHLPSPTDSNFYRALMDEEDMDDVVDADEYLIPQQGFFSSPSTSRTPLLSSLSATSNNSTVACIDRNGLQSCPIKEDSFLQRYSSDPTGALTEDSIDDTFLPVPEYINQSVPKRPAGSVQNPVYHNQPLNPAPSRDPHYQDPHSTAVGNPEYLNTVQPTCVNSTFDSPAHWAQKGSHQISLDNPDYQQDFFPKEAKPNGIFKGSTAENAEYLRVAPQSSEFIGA
# measurement description: HTRF Phospho EGFR TMLRCS assay (cellular), BaF3-TMLRCS cells
# condition context: BaF3-TMLRCS cell line, 4 hours incubation
endpoint: IC50 (nM)

>>> df
                                   molecule  value_unit  result_number
0  O=C(Nc1nccs1)C(c1ncn2c1CCC2)N1Cc2c(F)cc(-c3ccc(C45CC(CN6CCC(CO)CC6)(C4)C5)cc3)c(F)c2C1=O (racemic)          nM              4
1  O=C(Nc1nccs1)C(c1ncn2c1CCC2)N1Cc2c(F)cc(-c3ccc(C45CC(CN6CCC(CO)CC6)(C4)C5)cc3)cc2C1=O (racemic)          nM              4
2  O=C(Nc1nccs1)C(c1ncn2c1CCC2)N1Cc2c(Cl)cc(-c3ccc(C45CC(CN6CCC(CO)CC6)(C4)C5)cc3)cc2C1=O (racemic)          nM              9
